System: KM12 colon
Procedure text: NCI-60 one-dose screen, 48 h
Stated conditions: 10 µM unless noted
About 83,000 compounds went through this panel and 20% of them were active in at least one assay; those are over-represented in the sample as a whole. The source made the active and inactive calls. The calls were made as follows: active = growth percent below 10; inactive = the rest.
# valid calls are active, inactive; nothing else

Worked examples, 5 compounds total:
* COc1ccc(-c2ccc(SCC(=O)Nc3ccc(S(N)(=O)=O)cc3Br)nn2)cc1 | inactive
* C=C1CCC2C3(C)COC(c4ccccc4)OC3CCC2(C)C1CC(Sc1ccccc1)C1=CCOC1=O (configuration not stated) | inactive
* COc1ccc(-c2nc(SC(C)C)nc(NCCc3c[nH]c4ccccc34)c2C#N)cc1 | inactive
* C#CCOc1cc(N(CC)CC)ccc1C(C(=O)NC(C)(C)C)N(C(=O)C1CCc2cc(F)ccc2O1)c1ccccc1Br (configuration not stated) | inactive
* COc1ccc(/C=C/c2nc3ccccc3nc2Nc2cccc(C)c2)cc1 | inactive

INPUT: Just curious, what result did Cc1ccc(-c2nc(C#N)c(S(=O)(=O)N3CCN(S(=O)(=O)c4ccc(Cl)cc4)CC3)o2)cc1 get here?
OUTPUT: inactive

INPUT: What do you have for COc1ccc(-c2cc(C(=O)NCc3ccccc3)nn2-c2ccc(S(C)(=O)=O)cc2)cc1OC ?
OUTPUT: inactive

====

Test system: DU-145 prostate
Procedure text: NCI-60 one-dose screen, 48 h
Stated conditions: 10 µM unless noted
The panel holds about 83,000 compounds, 20% with a hit somewhere; the sample as a whole holds those more often. Activity calls are given as the source filed them. Rule for the calls: active = growth percent below 10; inactive = the rest.
In this exercise, the only acceptable responses are active, inactive

The following compounds have reported results that may help.
- O=C1CCCc2cc(OCC(=O)N3CCCCC3)ccc2N1: inactive
- CC(C)c1ccc2c(N)c(C(=O)Nc3ccc(C(F)(F)F)cn3)sc2n1: inactive
- S=C(NCCc1ccccc1)Nc1ccc(OCc2nc3ccccc3[nH]2)cc1: inactive

INPUT: Outcome logged for COc1ccc(C(=O)/C=C/c2ccc(OC)c(OCc3ccccc3)c2)cc1OC in this assay:
OUTPUT: inactive

INPUT: Can you check CC(=O)OC[C@@]1(C)C2CC[C@]3(C)C(CC=C4C5CC(C)(C)CC[C@]5(C(=O)Nc5cccc(C)c5)CC[C@]43C)[C@@]2(C)C[C@@H](OC(C)=O)[C@@H]1OC(C)=O (some centres not stated) next?
OUTPUT: inactive

INPUT: Again, but for COc1ccc(C(=O)/C=C/c2cccc(Br)c2)cc1S(N)(=O)=O
OUTPUT: active

INPUT: Same thing, different compound: Clc1cccc(Cl)c1/C=C/c1cc(/C=C/c2ccc(Br)cc2)c2ccccc2n1
OUTPUT: inactive

====

Listed molecules paired with reported growth
Tested on: OVCAR-4 ovarian
Procedure text: NCI-60 one-dose screen, 48 h (100 = growth as untreated, 0 = no growth, -100 = all killed)
Stated conditions: 10 µM unless noted
About 83,000 compounds went through this panel and 20% of them were active in at least one assay; those are over-represented in the sample as a whole. Active and inactive are the calls of the source. How the source made its calls: active means growth percent below 10; inactive means the rest.

Known growth results, listed for orientation:
- CC(=O)Nc1cccc(Nc2nc(N[C@H]3CCCc4ccccc43)c3ccccc3n2)c1: 104% (inactive)
- CC(C)CSc1nc(NCCc2c[nH]c3ccccc23)c(C#N)c(-c2ccc(F)cc2)n1: 72.8% (inactive)
- O=C(Nc1cccc(-n2cnc3cc(-c4ccc(O)cc4)ccc32)c1)C1CC1: 49.6% (inactive)

INPUT: Request body: readout growth, system OVCAR-4 ovarian, query COc1ccc(-c2c(Nn3cnnn3)no[n+]2[O-])cc1 . Return the value.
OUTPUT: 53.4% (inactive)

====

System: HS 578T breast
Procedure text: NCI-60 one-dose screen, 48 h
Stated conditions: 10 µM unless noted
This is part of a sample that, as a whole, favours compounds with a hit. Of some 83,000 tested, about 20% had one in any assay. Activity calls are given as the source filed them. The calls were made as follows: active = growth percent below 10; inactive = the rest.
Please answer using one outcome listed in active, inactive

Worked examples follow.
* COc1ccc(C(=O)Nc2n[nH]c(Nc3ccccc3)c2C#N)cc1 | inactive
* CC(=O)OC[C@@]1(C)C2CC[C@]3(C)C(CC=C4C5CC(C)(C)CC[C@]5(C(=O)Nc5ccc(Br)cc5)CC[C@]43C)[C@@]2(C)C[C@@H](OC(C)=O)[C@@H]1OC(C)=O (stereo partly drawn) | inactive
* Brc1ccc(N/N=C/c2c[nH]c3ccc(Br)cc23)nc1 | active

INPUT: Record lookup: outcome of this test for CCN1CCN(Cc2ccc(C(=O)Nc3cccc(C#Cc4cccc5[nH]nc(N)c45)c3)cc2C(F)(F)F)CC1 ?
OUTPUT: active

INPUT: Also, CC12CC[C@@H]3[C@]4(C)COC(c5c(F)cccc5F)O[C@@H]4CC[C@@]3(C)[C@@H]1CC(C1=CCOC1=O)O2 (stereo partly drawn) please.
OUTPUT: inactive

INPUT: N/C(=N\c1nc2ccccc2s1)NC(=O)Nc1ccccc1Br , same question.
OUTPUT: active

====

# Lookup of reported growth keyed by entry
System: HOP-62 NSCLC
Procedure text: NCI-60 one-dose screen, 48 h (100 = growth as untreated, 0 = no growth, -100 = all killed)
Stated conditions: 10 µM unless noted
About 83,000 compounds went through this panel and 20% of them were active in at least one assay; those are over-represented in the sample as a whole.
The reply should contain only the number, in %.

Here are 2 compounds together with their reported answers.
• C#CCOc1cc(N(CC)CC)ccc1C(C(=O)NC(C)(C)C)N(C(=O)C1CCc2cc(F)ccc2O1)c1ccccc1F (configuration not stated) = 49.5
• CN1CCN(c2ccc(C(=O)/C=C/c3ccc(Br)cc3)cc2)CC1 = 22.1

INPUT: Which growth is reported for this compound? COc1cc2c(c(OC)c1OC)C(=O)CC(c1cccc(NC(=O)c3cc(NC(=O)[C@H](CO)NC(=O)OC(C)(C)C)ccc3Cl)c1)O2 (some centres not stated)
OUTPUT: 50.3

INPUT: Ok, now COc1cc2oc(-c3cccc(C(=O)Nc4ccc(Cl)cc4)c3)cc(=O)c2c(OCCNC(=O)[C@H](CCC(=O)OC(C)(C)C)NC(=O)OC(C)(C)C)c1OC
OUTPUT: 95.3

INPUT: Ok, now O=C(CN1C(=O)/C(=C/c2ccccc2Cl)SC1=S)N1CCOCC1
OUTPUT: 116

INPUT: Also need S=c1c2ccccc2nc2n1CCc1c-2[nH]c2ccccc12 , thanks.
OUTPUT: 38.5

INPUT: Now give it for CCOC(=O)C(N=Nc1ccc(S(=O)(=O)N=C(N)N)cc1)C(C)=O (configuration not stated) too.
OUTPUT: 119

====

System: NCI-H522 lung
Procedure text: NCI-60 one-dose screen, 48 h (100 = growth as untreated, 0 = no growth, -100 = all killed)
Stated conditions: 10 µM unless noted
About 83,000 compounds went through this panel and 20% of them were active in at least one assay; those are over-represented in the sample as a whole.
Property: growth (%)
All answers are understood in %, so give the number only.

* Cc1cc2c(cc1Cl)C(=O)/C(=C/c1ccccc1)O2 | -75
* N#Cc1c(-c2cccc3ccccc23)cc(-c2cccc(OCC(=O)O)c2)[nH]c1=O | 97.9
* COc1cccc(/C=C/c2nc3ccccc3c(=O)n2CC(=O)Nc2ccc(Cl)cc2)c1 | 97.2
* CCN(CC)c1ccc(/C=N/Nc2nc(-c3ccc(Br)cc3)cs2)c(O)c1 | 17
* COc1cc2c3c(n(CCCN4CCC[C@@H]4CO)c(=O)c2cc1OC)-c1cc2c(cc1C3=O)OCO2 | -82.1
* O=C(COc1ccc2c(c1)CCCC(=O)N2)NCc1ccccc1 | 89.1
* CC(=O)OC[C@@]1(C)C2CC[C@]3(C)C(CC=C4C5CC(C)(C)CC[C@]5(C(=O)Nc5cccc(C)c5)CC[C@]43C)[C@@]2(C)C[C@@H](OC(C)=O)[C@@H]1OC(C)=O (stereo partly drawn) | 40.3
* Cn1cc(-c2nnc(N)nc2-c2c[nH]c3ccc(Br)cc23)c2cc(Br)cnc21 | 6.2
* COC(=O)C[C@](O)(CCCC(C)(C)O)C(=O)O[C@H]1C(OC)=C[C@@]23CCCN2CCc2cc4c(cc2[C@@H]13)OCO4 | -68.7
* COc1cc(C2CC(c3ccc(S(=O)(=O)NCCNc4nc(Nc5ccc(F)cc5)nc(N(C)C)n4)cc3)=Nc3c(N)nc(N)nc3N2)cc(OC)c1OC (stereo not drawn) | 84.2

INPUT: Name the reported growth value associated with the molecule Brc1ccc(N/N=C/c2c[nH]c3ccc(Br)cc23)nc1
OUTPUT: -55.5

INPUT: Another molecule to look at: N/C(=N\c1nc2ccccc2s1)NC(=O)NCCCCCCO
OUTPUT: 36

INPUT: Also C#CCOc1ccc(/C=N/Nc2nc(-c3ccc(F)cc3)cs2)cc1OC ?
OUTPUT: 46.9

INPUT: Same question, CCN(CC)CCOc1ccc(Nc2ncc3cc(-c4ccc(O)c(C#N)c4)c(=O)n(C)c3n2)cc1 this time
OUTPUT: 83.1

INPUT: One more molecule: COc1ccc(C(=O)/C=C/c2cccc(Cl)c2Cl)cc1S(N)(=O)=O
OUTPUT: -56.3

INPUT: And then COc1ccc2c(c1)c(-c1cc(N)n3nc(-c4cn(C)c5ccccc45)cc3n1)cn2C , what is it?
OUTPUT: -64.4

INPUT: Would you kindly repeat that for O=C(c1ccc(OCCN2CCOCC2)cc1)C1[C@H](c2ccc(Cl)cc2)[C@@H](c2ccccc2)NC12C(=O)Nc1ccc(Br)cc12 (stereo partly drawn) ?
OUTPUT: 10.3

INPUT: Entry Cn1cc(-c2nnc(N)nc2-c2c[nH]c3ccccc23)c2cccnc21 please
OUTPUT: 21.4
